Here, each record is paired with measured Recovery of activation (% of baseline current) data.
- tgt: rP2X7 (Rattus norvegicus)
- assay-notes: TEVC recovery of current after complete inhibition (IC100), rP2X7
- assay-context: rP2X7, 240-s IC100 application, 120 s buffer wash, 100 μM ATP
A number alone suffices; assume %.

# count of solved cases: 5
Clc1cccc(-c2nnnn2Cc2cccnc2)c1Cl [A438079] = 50
O=C(NCC1(N2CCN(c3ccccc3)CC2)CCOCC1)c1cccnc1Sc1ccccc1 [JNJ47965567] = 2
O=S(=O)(O)c1ccc(N=C2C=CC(=C(c3ccc(Nc4ccc(S(=O)(=O)O)cc4)cc3)c3ccc(Nc4ccc(S(=O)(=O)O)cc4)cc3)C=C2)cc1 [methyl blue] = 4
CN1C(=O)CC[C@H]1C(=O)NCc1cccc(C(F)(F)F)c1Cl [GSK1482160] = 29
Clc1cccc(-n2nnnc2NCc2ccccc2Oc2ccccn2)c1Cl [A839977] = 1.4

// next entry
Input: Lab request: please report Recovery of activation (% of baseline current) under test system rP2X7 (Rattus norvegicus) for O=C(NCC12CC3CC(CC(C3)C1)C2)c1cc(CCCNCCCO)ccc1Cl [AZD9056]
Output: 29

----------
- tgt: rP2X7-F103A (Rattus norvegicus, UniProt Q64663, F103A)
- Sequence (Q64663 1-595 F103A): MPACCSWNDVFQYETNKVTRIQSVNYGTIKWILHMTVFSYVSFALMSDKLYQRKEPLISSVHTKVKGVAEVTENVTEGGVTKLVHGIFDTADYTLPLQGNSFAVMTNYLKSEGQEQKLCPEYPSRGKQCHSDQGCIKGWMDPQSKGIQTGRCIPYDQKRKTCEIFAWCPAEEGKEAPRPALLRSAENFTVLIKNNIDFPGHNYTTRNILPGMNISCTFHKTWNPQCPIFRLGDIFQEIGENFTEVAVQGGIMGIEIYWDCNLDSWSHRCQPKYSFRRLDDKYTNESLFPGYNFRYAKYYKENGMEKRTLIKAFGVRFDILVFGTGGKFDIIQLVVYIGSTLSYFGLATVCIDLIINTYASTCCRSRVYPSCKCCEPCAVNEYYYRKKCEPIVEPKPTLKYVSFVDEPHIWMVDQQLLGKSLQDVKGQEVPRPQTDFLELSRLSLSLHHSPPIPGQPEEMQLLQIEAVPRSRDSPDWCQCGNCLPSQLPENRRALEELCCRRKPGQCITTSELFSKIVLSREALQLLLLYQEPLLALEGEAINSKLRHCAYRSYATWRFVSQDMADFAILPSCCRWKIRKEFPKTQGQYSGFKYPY
- assay-notes: TEVC inhibition dose-response, rP2X7-F103A mutant
- assay-context: reduced expression and variable response to ATP, read-out: IC50 (inhibitory potency), F103A
pIC50: −log10 of the molar value.
Here, each record is paired with measured pIC50 data.

# count of solved cases: 3
Clc1cccc(-n2nnnc2NCc2ccccc2Oc2ccccn2)c1Cl [A839977] = < 6.00
O=C(NCC12CC3CC(CC(C3)C1)C2)c1cc(CCCNCCCO)ccc1Cl [AZD9056] = < 5.00
CN1C(=O)CC[C@H]1C(=O)NCc1cccc(C(F)(F)F)c1Cl [GSK1482160] = < 4.70

// next entry
Input: // query pIC50 value for entry Clc1cccc(-c2nnnn2Cc2cccnc2)c1Cl [A438079]
Output: < 5.00

----------
- tgt: rP2X7 (Rattus norvegicus, UniProt Q64663)
- Sequence (Q64663 1-595): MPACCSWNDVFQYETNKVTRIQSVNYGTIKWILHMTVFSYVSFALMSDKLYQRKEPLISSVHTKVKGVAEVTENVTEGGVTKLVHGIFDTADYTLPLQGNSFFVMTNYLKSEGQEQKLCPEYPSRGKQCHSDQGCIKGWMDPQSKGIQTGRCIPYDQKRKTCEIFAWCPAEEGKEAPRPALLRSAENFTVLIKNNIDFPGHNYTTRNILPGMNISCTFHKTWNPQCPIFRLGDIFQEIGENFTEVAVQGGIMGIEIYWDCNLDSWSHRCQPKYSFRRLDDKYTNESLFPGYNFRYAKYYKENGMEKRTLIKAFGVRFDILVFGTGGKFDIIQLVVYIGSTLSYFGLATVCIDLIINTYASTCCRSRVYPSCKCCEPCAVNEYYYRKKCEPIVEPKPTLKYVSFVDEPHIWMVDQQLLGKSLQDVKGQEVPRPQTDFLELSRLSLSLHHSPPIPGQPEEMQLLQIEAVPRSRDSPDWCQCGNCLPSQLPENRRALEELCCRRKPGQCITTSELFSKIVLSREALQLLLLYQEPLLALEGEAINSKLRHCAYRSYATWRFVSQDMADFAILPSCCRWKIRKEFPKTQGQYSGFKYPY
- assay-notes: TEVC inhibition dose-response (IC50), wild-type rP2X7 in Xenopus laevis oocytes
- Assay type: cell-based
- Set-up: the rP2X7-WT construct used for electrophysiology experiments is unmodified full-length, wild-type rP2X7; expressed in transfected cells; host or cells: Xenopus laevis oocytes injected with mRNA made from pcDNA3.1x
- assay-context: calculated from IC50 values; concentration applied in the recovery experiments
Where IC100 (100% inhibitory concentration) equals or exceeds 7 µM, the correct label is YES; where it does not, the label is NO.

Example cases with answers are listed next.
O=C(NCC12CC3CC(CC(C3)C1)C2)c1cc(CCCNCCCO)ccc1Cl = NO
CN1C(=O)CC[C@H]1C(=O)NCc1cccc(C(F)(F)F)c1Cl = YES
O=C(NCC1(N2CCN(c3ccccc3)CC2)CCOCC1)c1cccnc1Sc1ccccc1 = NO

Input: Please check the record Clc1cccc(-c2nnnn2Cc2cccnc2)c1Cl and state if its IC100 (100% inhibitory concentration) is at or above 7 µM.
Output: NO

Input: Please check the record Clc1cccc(-n2nnnc2NCc2ccccc2Oc2ccccn2)c1Cl and state if its IC100 (100% inhibitory concentration) is at or above 7 µM.
Output: NO

Input: Please check the record O=S(=O)(O)c1ccc(N=C2C=CC(=C(c3ccc(Nc4ccc(S(=O)(=O)O)cc4)cc3)c3ccc(Nc4ccc(S(=O)(=O)O)cc4)cc3)C=C2)cc1 and state if its IC100 (100% inhibitory concentration) is at or above 7 µM.
Output: YES

----------
- tgt: rP2X7 (Rattus norvegicus)
- assay-notes: Bio-layer interferometry (BLI), biotinylated rP2X7 on streptavidin biosensors, 2:1 Langmuir fit
- Assay type: binding
- assay-context: 2:1 Langmuir model, 30°C, PBS pH 7.4 with 0.5 mM DDM, ratio of kd to ka, read-out: KD1 (high-affinity binding component)
parameter: Kd

Input: // query Kd value for entry O=S(=O)(O)c1ccc(N=C2C=CC(=C(c3ccc(Nc4ccc(S(=O)(=O)O)cc4)cc3)c3ccc(Nc4ccc(S(=O)(=O)O)cc4)cc3)C=C2)cc1
Output: 260 nM

----------
- tgt: hP2X3 (Homo sapiens)
- Construct: The hP2X1-WT, hP2X2-WT, hP2X3-WT, hP2X4-WT, and hP2X7-WT constructs used for electrophysiology are similarly unmodified full-length, wild-type receptor constructs
- Sequence (P56373 whole entry): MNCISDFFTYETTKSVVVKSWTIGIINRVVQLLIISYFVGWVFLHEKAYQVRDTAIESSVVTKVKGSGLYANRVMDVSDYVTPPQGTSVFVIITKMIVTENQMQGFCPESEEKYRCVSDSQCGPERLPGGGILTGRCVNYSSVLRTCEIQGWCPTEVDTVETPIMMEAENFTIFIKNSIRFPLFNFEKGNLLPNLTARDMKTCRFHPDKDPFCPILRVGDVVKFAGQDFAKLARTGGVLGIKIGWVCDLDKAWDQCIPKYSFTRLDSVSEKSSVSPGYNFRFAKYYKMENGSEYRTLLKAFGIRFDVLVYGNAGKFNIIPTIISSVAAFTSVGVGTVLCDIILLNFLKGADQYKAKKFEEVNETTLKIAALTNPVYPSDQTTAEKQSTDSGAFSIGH
- assay-notes: TEVC inhibition dose-response (IC50), hP2X3 in Xenopus laevis oocytes
- assay-context: 1 μM ATP, mean ± SD, triplicate
parameter: IC50 (µM)
A number alone suffices; assume µM.

Input: Lab request: please report IC50 under test system hP2X3 (Homo sapiens) for O=S(=O)(O)c1ccc(N=C2C=CC(=C(c3ccc(Nc4ccc(S(=O)(=O)O)cc4)cc3)c3ccc(Nc4ccc(S(=O)(=O)O)cc4)cc3)C=C2)cc1
Output: 4

----------
- tgt: rP2X7-K297V (Rattus norvegicus, UniProt Q64663, K297V)
- Sequence (Q64663 1-595 K297V): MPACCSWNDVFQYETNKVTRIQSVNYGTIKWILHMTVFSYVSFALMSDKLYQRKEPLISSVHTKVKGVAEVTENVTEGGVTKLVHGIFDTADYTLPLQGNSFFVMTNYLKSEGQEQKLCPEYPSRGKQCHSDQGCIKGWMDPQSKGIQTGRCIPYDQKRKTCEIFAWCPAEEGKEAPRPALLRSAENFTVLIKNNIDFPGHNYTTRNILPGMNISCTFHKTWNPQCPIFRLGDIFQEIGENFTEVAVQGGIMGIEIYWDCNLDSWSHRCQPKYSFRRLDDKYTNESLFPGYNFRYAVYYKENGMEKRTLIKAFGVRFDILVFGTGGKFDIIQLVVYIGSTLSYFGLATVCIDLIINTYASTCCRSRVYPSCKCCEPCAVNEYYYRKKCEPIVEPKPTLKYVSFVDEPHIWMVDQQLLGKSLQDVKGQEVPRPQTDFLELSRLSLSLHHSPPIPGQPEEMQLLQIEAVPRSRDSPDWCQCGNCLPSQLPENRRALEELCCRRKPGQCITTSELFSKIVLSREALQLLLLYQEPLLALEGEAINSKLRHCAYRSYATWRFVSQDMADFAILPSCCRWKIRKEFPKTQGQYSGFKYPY
- assay-notes: TEVC inhibition dose-response, rP2X7-K297V mutant
- assay-context: signals evoked by 300 μM ATP, read-out: IC50 (inhibitory potency), K297V
Quick rule for you: IC50 under 20 nM gets T, anything else gets F.

CN1C(=O)CC[C@H]1C(=O)NCc1cccc(C(F)(F)F)c1Cl = F
Clc1cccc(-n2nnnc2NCc2ccccc2Oc2ccccn2)c1Cl = T
O=C(NCC1(N2CCN(c3ccccc3)CC2)CCOCC1)c1cccnc1Sc1ccccc1 = F
O=C(NCC12CC3CC(CC(C3)C1)C2)c1cc(CCCNCCCO)ccc1Cl = T
O=S(=O)(O)c1ccc(N=C2C=CC(=C(c3ccc(Nc4ccc(S(=O)(=O)O)cc4)cc3)c3ccc(Nc4ccc(S(=O)(=O)O)cc4)cc3)C=C2)cc1 = F

From here, focus on the item given below.
Input: # strict comparison: is reported IC50 < 20 nM? input = Clc1cccc(-c2nnnn2Cc2cccnc2)c1Cl
Output: F
